Here the recorded pIC50 is given for each entry.
- Assayed System: Tyrosine-protein phosphatase non-receptor type 6 (Homo sapiens, UniProt P29350)
- Sequence (P29350 whole entry, the tested form may be a part): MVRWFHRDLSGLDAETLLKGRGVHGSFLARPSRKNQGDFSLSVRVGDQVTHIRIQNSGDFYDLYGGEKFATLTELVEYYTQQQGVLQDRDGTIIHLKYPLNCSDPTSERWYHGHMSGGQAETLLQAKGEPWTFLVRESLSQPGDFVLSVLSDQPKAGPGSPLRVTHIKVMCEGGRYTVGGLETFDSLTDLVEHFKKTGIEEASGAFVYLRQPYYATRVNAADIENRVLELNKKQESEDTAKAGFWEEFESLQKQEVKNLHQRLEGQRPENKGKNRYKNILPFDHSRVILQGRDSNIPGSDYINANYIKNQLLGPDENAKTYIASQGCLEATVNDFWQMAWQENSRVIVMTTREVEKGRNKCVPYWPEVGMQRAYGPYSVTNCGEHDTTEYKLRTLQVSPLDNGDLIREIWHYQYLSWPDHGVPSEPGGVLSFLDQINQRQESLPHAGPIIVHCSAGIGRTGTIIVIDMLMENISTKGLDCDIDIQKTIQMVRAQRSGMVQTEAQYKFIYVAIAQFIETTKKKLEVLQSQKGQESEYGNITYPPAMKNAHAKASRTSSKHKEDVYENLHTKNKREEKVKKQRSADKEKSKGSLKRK
- Assay Text: Inhibition of human recombinant GST-tagged SHP1 (catalytic domain 244 to 570 residues) expressed in Escherichia coli BL21 (DE3) using pNPP as substrate measured for 2 mins by colorimetric analysis
pIC50: −log10 of the molar value.
Measurement Type: pIC50

- Compound: "O=C(O)C(Cc1c[nH]c2ccccc12)N1C(=O)/C(=C/c2ccc3cc(OCc4ccc(Br)cc4)ccc3c2)SC1=S (centres undefined)"
  Measurement Type: "pIC50"
  Test Result: 5.95
- Compound: "O=C(O)C(Cc1c[nH]c2ccccc12)N1C(=O)/C(=C/c2ccc3cc(OCc4ccc(Cl)cc4Cl)ccc3c2)SC1=S (centres undefined)"
  Measurement Type: "pIC50"
  Test Result: 5.53
- Compound: "O=C(O)C(Cc1c[nH]c2ccccc12)N1C(=O)/C(=C/c2ccc3cc(OCc4ccc(F)cc4)ccc3c2)SC1=S (centres undefined)"
  Measurement Type: "pIC50"
  Test Result: 5.82
- Compound: "Cc1ccc(COc2ccc3cc(/C=C4\\SC(=S)N(C(Cc5c[nH]c6ccccc56)C(=O)O)C4=O)ccc3c2)cc1 (centres undefined)"
  Measurement Type: "pIC50"
  Test Result: 5.40
